# Tested on: KB cells
# run description: Cytotoxicity: KB cell growth (crystal violet staining)
# Format: cell-based
# test context: Homo sapiens; Table 1; cytotoxicity, KB cell growth, 48 hours; read-out: KBgrv
test readout: IC50

Below, 4 compounds whose answers are already recorded.
N#Cc1c(Br)n(CCc2ccccc2)c2ncnc(N)c12 ... > 100 µM
N#Cc1cn(Cc2ccc([N+](=O)[O-])cc2)c2ncnc(N)c12 ... > 100 µM
CC(c1ccccc1)n1c(Br)c(C#N)c2c(N)ncnc21 (centres unmarked) ... 50 µM
N#Cc1c(N)n(Cc2ccc(N)cc2)c2ncnc(N)c12 ... 146 µM

Here is another compound to look at.
IC50 reported for this compound `N#Cc1c(Br)n(CCCc2ccccc2)c2ncnc(N)c12` : > 100 µM

---

Consider the following molecules; for each one, report its pIC50.
# Tested on: KB cells
# run description: Cytotoxicity: KB cell growth (crystal violet staining)
# Type: cell-based
# test context: Homo sapiens; Table 1; cytotoxicity, KB cell growth, 48 hours; read-out: KBgrv
pIC50: −log10 of the molar value.

Could you tell me pIC50 for each of these molecules? They are listed below.
1. NC(=O)c1c(Br)n(CCc2ccccc2)c2ncnc(N)c12 [Compound 1409]
2. N#Cc1c(N)n(CC=Cc2ccccc2)c2ncnc(N)c12 [Compound 1329]
3. N#Cc1c(N)n(Cc2ccc([N+](=O)[O-])cc2)c2ncnc(N)c12 [Compound 1348]
4. N#Cc1c(Br)n(Cc2cccc([N+](=O)[O-])c2)c2ncnc(N)c12 [Compound 1374]
5. NC(=S)c1cn(CCCc2ccccc2)c2ncnc(N)c12 [Compound 1413]
6. N#Cc1c(Br)n(Cc2cccc(Cl)c2)c2ncnc(N)c12 [Compound 1461]
7. N#Cc1c(N)n(CCCc2ccccc2)c2ncnc(N)c12 [Compound 1350]
8. N#Cc1c(Br)n(Cc2ccc([N+](=O)[O-])cc2)c2ncnc(N)c12 [Compound 1331]

Result:
1: < 4.00; 2: 4.48; 3: < 4.00; 4: < 4.00; 5: 4.42; 6: < 4.00; 7: 4.30; 8: < 4.00

Summary: N#Cc1cn(CC=Cc2ccccc2)c2ncnc(N)c12 [Compound 1372] , KB cells, pIC50 = < 4.00

---

# Test system: KB cells
# run description: Cytotoxicity: KB cell growth (crystal violet staining)
# Type: cell-based
# test context: Homo sapiens, KB, 48 h, read-out: KBgrv
test readout: IC50

Cc1ccccc1Cn1cc(C(N)=O)c2c(N)ncnc21 [Compound 636] ... ≥ 222 µM
NC(=O)c1cn(Cc2ccc([N+](=O)[O-])cc2)c2ncnc(N)c12 [Compound 1412] ... > 100 µM

For each of the items listed, what is its IC50?
1. Cc1ccc(Cn2cc(C(N)=O)c3c(N)ncnc32)cc1 [Compound 658]
2. NC(=O)c1cn(Cc2cccc([N+](=O)[O-])c2)c2ncnc(N)c12 [Compound 1421]
3. Cc1ccc(Cn2c(Br)c(C(N)=O)c3c(N)ncnc32)cc1 [Compound 1427]

Result:
≥ 222 µM
> 100 µM
> 100 µM

---

# Tested on: KB cells
# run description: Cytotoxicity: KB cell growth (crystal violet staining)
# Assay type: cell-based
# test context: Homo sapiens; Table 1; cytotoxicity, KB cell growth, 48 hours; read-out: KBgrv
pIC50: −log10 of the molar value.
test readout: pIC50

N#Cc1cn(CCc2ccccc2)c2ncnc(N)c12 ... < 4.00
N#Cc1c(Br)n(Cc2ccc(F)cc2)c2ncnc(N)c12 ... < 4.00

Continue with the next compound.
The reported value for `N#Cc1c(Br)n(Cc2ccc(Cl)c(Cl)c2)c2ncnc(N)c12` in terms of pIC50 is < 4.00
